Measured values drawn from the supplement of paper PMC9950053 for this set.

# Test system: Danio rerio larvae (5 dpf)
# assay.procedure: combined upward orientation toward moving lines (periods 7-14) minus DMSO control (percentage points); higher = more orientation with moving lines than DMSO larvae
# condition.label: 10 µM; exposure time: 3 h pre-incubation + 3 h imaging
Listed here: items and their measured combined upward orientation toward moving lines.
measurement.type: combined upward orientation toward moving lines

INSERT INTO results (molecule, numeric_result) VALUES
  ('NC(=O)c1ncn([C@@H]2O[C@H](CO)[C@@H](O)[C@H]2O)n1', -1.89),
  ('CNC(=O)c1ccccc1Sc1ccc2c(/C=C/c3ccccn3)n[nH]c2c1', 4.21),
  ('COc1ccc(Cl)cc1C(=O)NCCc1ccc(S(=O)(=O)NC(=O)NC2CCCCC2)cc1 [Glibenclamide]', -10.9),
  ('Cc1cc(C2CCCCC2)n(O)c(=O)c1', -27.9),
  ('Nc1nc2[nH]cc(CCc3ccc(C(=O)N[C@@H](CCC(=O)O)C(=O)O)cc3)c2c(=O)[nH]1', -1.85);
